Reference for the values: patent US20180148477A1

Target: human α4β7 integrin on cells (human) (UniProt P13612)
Assay: RPMI8866 adhesion to MAdCAM-1
Bridge positions count the residues as written; N and C are the ends. Square brackets hold non-standard residues; d marks the D form. Bip = N[C@@H](Cc1ccc(-c2ccccc2)cc1)C(=O)O; 1Nal = N[C@@H](Cc1cccc2ccccc12)C(=O)O; 2Nal = N[C@@H](Cc1ccc2ccccc2c1)C(=O)O; NMeR = CN[C@@H](CCCNC(=N)N)C(=O)O; β3hE = N[C@@H](CCC(=O)O)CC(=O)O; Cha = N[C@@H](CC1CCCCC1)C(=O)O; NMeK = CN[C@@H](CCCCN)C(=O)O; Pen = CC(C)(S)[C@H](N)C(=O)O; dNMeK = CN[C@H](CCCCN)C(=O)O
quantityName: IC50

Please give IC50 for each item listed below.
1. Ac-[Pen][NMeR]SDTL[Pen][1Nal][dE][dNMeK]-NH2 (disulfide 1-7; also: dimer via DIG) [SEQ ID NO: 38]
2. Ac-[Pen][NMeR]SDTL[Pen][Bip]E[NMeK]-NH2 (disulfide 1-7 (inferred); also: homodimer via DIG) [SEQ ID NO: 136]

Reply:
1. < 10 nM
2. < 10 nM

Please give IC50 for each item listed below.
1. Ac-[Pen][NMeR]SD[Cha]L[Pen][2Nal][dE]-NH2 (disulfide 1-7; SMILES CC(=O)N[C@@H]1C(=O)N(C)[C@@H](CCCNC(=N)N)C(=O)N[C@@H](CO)C(=O)N[C@@H](CC(=O)O)C(=O)N[C@@H](CC2CCCCC2)C(=O)N[C@@H](CC(C)C)C(=O)N[C@H](C(=O)N[C@@H](Cc2ccc3ccccc3c2)C(=O)N[C@H](CCC(=O)O)C(N)=O)C(C)(C)SSC1(C)C) [SEQ ID NO: 158]
2. Ac-[Pen][NMeR]SDIL[Pen][2Nal][dE]-NH2 (disulfide 1-7; SMILES CC[C@H](C)[C@@H]1NC(=O)[C@H](CC(=O)O)NC(=O)[C@H](CO)NC(=O)[C@H](CCCNC(=N)N)N(C)C(=O)[C@@H](NC(C)=O)C(C)(C)SSC(C)(C)[C@@H](C(=O)N[C@@H](Cc2ccc3ccccc3c2)C(=O)N[C@H](CCC(=O)O)C(N)=O)NC(=O)[C@H](CC(C)C)NC1=O) [SEQ ID NO: 160]
3. Ac-[Pen][NMeR]SDTL[Pen][Bip][β3hE][NMeK]-NH2 (disulfide 1-7 (inferred); also: dimer via DIG linker) [SEQ ID NO: 150]
4. Ac-[Pen][NMeR]SDTL[Pen][1Nal]E[dNMeK]-NH2 (disulfide 1-7; also: dimer via DIG) [SEQ ID NO: 44]

Reply:
1. > 1000 nM
2. > 1000 nM
3. < 10 nM
4. < 10 nM
